ASSAY_DETAILS: inhibitors of E-selectin induction by TNFa, primary screen, imaging, HUVEC, immunofluorescence, MLSMR starter and 10KST1 sets (AID 487);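 also: 100% = median nuclei count of all wells on the same plate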
EXPERIMENTAL_SETUP: HUVEC TNFalpha-induced E-selectin immunofluorescence imaging, at 2 µM; measured here: cell number, toxicity
ATTRIBUTE_MEASURED: nuclei count (%)
Answer with a number only, understood to be in %.

Just so you know, measured nuclei count for Cn1c(NCC(O)c2ccccc2)nc2c1c(=O)n(Cc1ccc(Cl)c(Cl)c1)c(=O)n2C (configuration not stated) came out at 162

Just so you know, measured nuclei count for COC(=O)C(NC(C)=O)(Nc1ccccc1)C(=O)OC came out at 191

Just so you know, measured nuclei count for Cn1ncc(N=Cc2ccccc2O)c1C(=O)Nc1ccccc1 came out at 140

Just so you know, measured nuclei count for COc1ccc2[nH]c(C)c(C(=O)CN3CCN(C(=O)c4ccco4)CC3)c2c1 came out at 165

Just so you know, measured nuclei count for C=CCOC(=O)C(C#N)c1nc2ccccc2nc1N1CCC(C(=O)OCC)CC1 (configuration not stated) came out at 138

Just so you know, measured nuclei count for Cc1ccc(C(=O)/C=C/Nc2cccc(O)c2)cc1 came out at 115

Just so you know, measured nuclei count for Cn1cc(NC(=O)c2cc(NC(=O)c3cc(NC=O)cn3C)cn2C)cc1C(=O)NCCC(=N)N came out at 95.1

Just so you know, measured nuclei count for Cc1ccc(-n2c(N)c(C(N)=O)sc2=S)cc1 came out at 146

Just so you know, measured nuclei count for COc1cccc(-c2nc(N3CCC(C)CC3)c3ccccc3n2)c1O came out at 120

Just so you know, measured nuclei count for CN1CCN(Cc2c(O)ccc3c(-c4ccccc4)cc(=O)oc23)CC1 came out at 124

Just so you know, measured nuclei count for CCCSc1ccc2nc(NC(=O)OC)[nH]c2c1 came out at 123

Just so you know, measured nuclei count for COc1ccc(-c2nc3n(c2Br)CCC3)cc1 came out at 162

Just so you know, measured nuclei count for COc1ccccc1N(O)C1CC(=O)N(c2ccc(F)cc2)C1=O (configuration not stated) came out at 92

Just so you know, measured nuclei count for CCCCN1C[C@H](O)[C@@H](O)[C@H](O)[C@H]1CO came out at 129

Just so you know, measured nuclei count for O=C(C1=C(O)C(=O)N(CCCN2CCOCC2)C1c1ccccn1)c1cccs1 (configuration not stated) came out at 136

Just so you know, measured nuclei count for Cc1cc(C)nc(N(C#N)S(=O)(=O)c2ccccc2Cl)n1 came out at 115

Just so you know, measured nuclei count for COCc1cc(C)nc(N)c1C#N came out at 136

Just so you know, measured nuclei count for COc1cc(OC)cc(C(=O)N2CCC(N3CCCCCC3)CC2)c1 came out at 132

Just so you know, measured nuclei count for CCOc1ccc(C2C(C(=O)c3ccc(C)o3)=C(O)C(=O)N2CCCN(CC)CC)cc1 (configuration not stated) came out at 151

Just so you know, measured nuclei count for O=C1CCC(=O)N1c1nc2nc(-c3ccccc3)cc(-c3ccccc3)n2n1 came out at 91

Just so you know, measured nuclei count for COc1ccc(N2CCN(c3nc4c(c(=O)[nH]c(=O)n4C)n3CCCc3ccccc3)CC2)cc1 came out at 112

Just so you know, measured nuclei count for CCCCCSc1nc(O)cc(=O)[nH]1 came out at 116

Just so you know, measured nuclei count for CC1(C)CC(=O)C(CCCN2C(=O)c3ccccc3C2=O)C(=O)C1 came out at 93.2

Just so you know, measured nuclei count for CC1CCCCN1C(=O)C12CCC(C)(/C(=N/O)C1)C2(C)C (configuration not stated) came out at 141

Just so you know, measured nuclei count for Cc1cc(C)nc(NC2=NCC(=O)N2c2cccc(Cl)c2)n1 came out at 141

Just so you know, measured nuclei count for CCCCC1CC1C(=O)Nc1ccc(OC)c(OC)c1 (configuration not stated) came out at 190

Just so you know, measured nuclei count for CCCCCc1ccc(-c2ccc(=O)[nH]n2)cc1 came out at 107

Just so you know, measured nuclei count for COc1ccc2c(c1)C1(C)CC(C)(C)N2C(=O)N1c1ccccc1 (configuration not stated) came out at 110

Just so you know, measured nuclei count for CSC1=Nc2sc3c(c2C2=NCCN12)CC(C)(C)OC3 came out at 176

Just so you know, measured nuclei count for COc1cc(NC(=O)NC(C)(C(F)(F)F)C(F)(F)F)cc(OC)c1OC came out at 140

Just so you know, measured nuclei count for COc1cc(C)nc(N(C)S(=O)(=O)c2ccccc2Cl)n1 came out at 175

Just so you know, measured nuclei count for Cc1cc(C)n(CC(=O)N2c3ccccc3Sc3ccccc32)n1 came out at 139

Just so you know, measured nuclei count for O=C(O)c1cc2cc(F)ccc2[nH]1 came out at 107

Just so you know, measured nuclei count for CC(C)NCC(O)COc1cccc2[nH]ccc12 (configuration not stated) came out at 126

Just so you know, measured nuclei count for O=C(CNC1=NCCC1)c1ccc2c(c1)OCCO2 came out at 161

Just so you know, measured nuclei count for COCCNC(=O)c1c(N)n(CCC2=CCCCC2)c2nc3ccccc3nc12 came out at 149

Just so you know, measured nuclei count for C[C@@H]1CCC[C@H](C)N1NC(=O)c1ccc(Cl)c(S(N)(=O)=O)c1 came out at 111

Just so you know, measured nuclei count for Cc1cc2c(c(=O)o1)C(Cc1ccccc1)C(C#N)=C(N)O2 (configuration not stated) came out at 126

Just so you know, measured nuclei count for CSc1nc2sc3c(c2c(=O)n1C1CCCCC1)CCN(C)C3 came out at 107

Just so you know, measured nuclei count for C=CCN(C(=O)CCC(=O)O)C1CC(=O)N(c2ccc(OCCC)cc2)C1=O (configuration not stated) came out at 223

Just so you know, measured nuclei count for CCOC(=O)c1c(C(C#N)C#N)cc(C)nc1C came out at 129

Just so you know, measured nuclei count for CCN=C1SC(C(=O)Nc2ccc(Cl)c(Cl)c2)CC(=O)N1CC (configuration not stated) came out at 133

Just so you know, measured nuclei count for C=CCOc1nc2c(c(=O)n(C)c(=O)n2C)n1Cc1ccccc1Cl came out at 155

Just so you know, measured nuclei count for Cc1nc(N2CCOCC2)c(C#N)c2c1COC(C)(C)C2 came out at 99.8

Just so you know, measured nuclei count for Nc1nnnn1CC(=O)OCc1cccc(Br)c1 came out at 167

Just so you know, measured nuclei count for CC(C)CC(C(=O)O)C(C)CC(=O)Nc1ccn(-c2ccccc2)n1 (configuration not stated) came out at 150

Just so you know, measured nuclei count for COc1ccccc1C1(CC(=O)N2CCOCC2)CCOC(C(C)C)C1 (configuration not stated) came out at 131
